target: Histamine H3 receptor (Rattus norvegicus); assay: Binding affinity against rat histamine H3 receptor
Sequence (Q9QYN8 whole entry): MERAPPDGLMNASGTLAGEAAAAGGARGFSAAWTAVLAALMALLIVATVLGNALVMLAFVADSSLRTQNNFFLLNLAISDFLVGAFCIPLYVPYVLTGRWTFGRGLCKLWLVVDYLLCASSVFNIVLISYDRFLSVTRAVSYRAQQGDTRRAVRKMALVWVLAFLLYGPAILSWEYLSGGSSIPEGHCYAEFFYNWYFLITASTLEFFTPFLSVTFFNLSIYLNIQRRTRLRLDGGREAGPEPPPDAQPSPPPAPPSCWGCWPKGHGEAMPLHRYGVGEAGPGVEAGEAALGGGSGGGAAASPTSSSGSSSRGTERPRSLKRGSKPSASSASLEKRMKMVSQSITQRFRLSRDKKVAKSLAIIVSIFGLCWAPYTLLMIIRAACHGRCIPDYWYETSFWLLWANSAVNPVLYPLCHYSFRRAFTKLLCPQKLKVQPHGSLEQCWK
We'd kindly ask you to apply these Ki classes: band A = under 6 nM, band B = from 6 nM up to 100 nM, band C = 100 nM and over

The examples below pair each entry with its known result.
{"record smiles": "CC(=O)c1ccc(OCCCN2CC[C@H](NC(=O)[C@H](CO)NC(=O)OC(C)(C)C)C2)cc1", "qualitative label": "band C"}
{"record smiles": "Cc1cccc(S(=O)(=O)N[C@H]2CCN(CCCOc3ccc(C(=O)C4CC4)cc3)C2)c1", "qualitative label": "band A"}
{"record smiles": "O=C(c1ccc(OCCCN2C[C@@H]3C[C@H]2CN3C(=O)c2ccccc2)cc1)C1CC1", "qualitative label": "band C"}
{"record smiles": "O=C(c1ccc(OCCCN2C[C@@H]3C[C@H]2CN3C(=O)C2CCCCC2)cc1)C1CC1", "qualitative label": "band C"}
{"record smiles": "CC(=O)c1ccc(OCCCN2CC[C@H](NC(=O)c3csc(-c4cccnc4)n3)C2)cc1", "qualitative label": "band B"}
{"record smiles": "O=C(O)CCNC(=O)N1C[C@@H]2C[C@H]1CN2CCCOc1ccc(C(=O)C2CC2)cc1", "qualitative label": "band B"}
{"record smiles": "N#Cc1ccc(S(=O)(=O)N[C@H]2CCN(CCCOc3ccc(C(=O)C4CC4)cc3)C2)cc1", "qualitative label": "band A"}
{"record smiles": "O=C(c1ccc(OCCCN2CC[C@H](NS(=O)(=O)c3cccc(F)c3)C2)cc1)C1CC1", "qualitative label": "band A"}

Kindly review the next compound as well.
Category lookup for the compound N#Cc1ccccc1S(=O)(=O)N[C@H]1CCN(CCCOc2ccc(C(=O)C3CC3)cc2)C1 band B
